For each of the molecules below, state its TGI.
- System: OVCAR-3 ovarian
- Experiment notes: NCI tumour cell line growth inhibition, 48 h

Request: Please give the measured TGI for this molecule: CC(C)(C)OC(=O)N(CCCCNC(=O)OCc1ccccc1)CCCNC(=O)OCc1ccccc1
Response: > 100 µM

Request: Also need CC1=C(C(=O)CC(=O)C(=O)Nc2cc(C)ccc2C)Sc2ccccc2N1 , thanks.
Response: > 100 µM

Request: Also need COc1ccc(C(c2c(O)c3ccccc3n(-c3ccccc3)c2=O)c2c(O)c3ccccc3n(-c3ccccc3)c2=O)cc1 , thanks.
Response: > 100 µM

Request: Also need Cc1nc(-c2ccccc2)n2nc(NCCCN3CCOCC3)ncc12 , thanks.
Response: > 25 µM

Request: Also need [N-]=[N+]=NC1OC(=O)C(Cl)=C1N=P(c1ccccc1)(c1ccccc1)c1ccccc1 (stereo unspecified) , thanks.
Response: > 10 µM

Request: Also need O=C1C(Br)=C(c2ccccc2)O/C1=C/C(=O)c1ccc(Br)cc1 , thanks.
Response: > 100 µM

Request: Also need COc1ccc(C(=O)O[C@H]2[C@@H]3C=CO[C@@H](OC4OC(CO)C(O)C(O)C4O)[C@@H]3[C@@]3(CO)O[C@@H]23)cc1O (stereo partly specified) , thanks.
Response: > 100 µM

Request: Also need O=c1/c(=C/c2ccccc2[N+](=O)[O-])sc2nc3ccccc3n12 , thanks.
Response: > 31.6 µM

Request: Also need CC1/C=C/[C@@]2(C)CCC(C(C)(C)O)C2C(O)C[C@](C)(O)/C=C/C1 (stereo partly specified) , thanks.
Response: > 100 µM

Request: Also need Cc1ccc2c(c1)C(=O)c1nc(C)ccc1C2=O , thanks.
Response: > 100 µM

Request: Also need O=C1/C(=C\c2cccc(Oc3ccccc3)c2)SC(c2ccccc2)N1c1ccccc1 (stereo unspecified) , thanks.
Response: > 100 µM

Request: Also need O=C1c2cc(Cl)ccc2NC(=NC2CCCC2)C2CSCN12 (stereo unspecified) , thanks.
Response: > 100 µM

Request: Also need CCC(=O)c1c(NOC2OCC(OC(C)=O)C(OC(C)=O)C2OC(C)=O)nc(OC)n(C)c1=O (stereo unspecified) , thanks.
Response: > 100 µM

Request: Also need COc1ccc(N=NC(C(=O)c2ccccc2)C(=O)c2ccccc2)cc1 , thanks.
Response: > 100 µM

Request: Also need COc1ccc2nc(-c3ccccc3)cc(OCC(=O)O)c2c1 , thanks.
Response: > 100 µM

Request: Also need COC(=O)c1cc2c3ccccc3n3c(=O)c4cc5ccc(N(S(=O)(=O)c6ccc(C)cc6)S(=O)(=O)c6ccc(C)cc6)cc5nc4c(n1)c23 , thanks.
Response: > 100 µM
